Reported ΔR, steady-state measurements values for a set of compounds
- Tested on: double-labeled CYP3A4 C64/C121-DY/ER (Homo sapiens, UniProt P08684, A121C/C239S/C377S/C468A/C98S/S18F)
- Sequence (P08684 with tags, fused parts or gaps S18F/C98S/A121C/C239S/C377S/C468A limits assumed): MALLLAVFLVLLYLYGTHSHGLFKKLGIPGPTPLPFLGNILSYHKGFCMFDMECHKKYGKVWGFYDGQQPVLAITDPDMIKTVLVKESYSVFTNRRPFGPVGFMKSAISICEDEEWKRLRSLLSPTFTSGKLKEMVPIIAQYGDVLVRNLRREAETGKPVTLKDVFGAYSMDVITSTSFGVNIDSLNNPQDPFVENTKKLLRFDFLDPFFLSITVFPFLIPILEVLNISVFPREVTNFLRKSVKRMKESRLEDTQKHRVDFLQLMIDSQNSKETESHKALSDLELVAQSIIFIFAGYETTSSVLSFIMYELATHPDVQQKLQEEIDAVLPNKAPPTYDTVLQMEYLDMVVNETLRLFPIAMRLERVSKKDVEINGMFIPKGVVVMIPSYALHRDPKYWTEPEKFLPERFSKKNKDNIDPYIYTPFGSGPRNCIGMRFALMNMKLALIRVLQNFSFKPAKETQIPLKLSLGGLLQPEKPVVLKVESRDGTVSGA
- Test description: Steady-state LRET titration (delayed emission)
- Experimental setup: Table S2; protein C64/C121-ER/DY; same ligand concentrations
Counter-ions that a name gives are not always drawn.
Metric: ΔR, steady-state measurements (Å)

{"Compound": "C[C@]12CC[C@H]3[C@@H](CCC4=CC(=O)CC[C@@]43C)[C@@H]1CC[C@@H]2O", "Readout units": "Å", "Numeric value": 1.3}
{"Compound": "CC(C)C[C@H]1C(=O)N2CCC[C@H]2[C@]2(O)O[C@](NC(=O)[C@@H]3C=C4c5cccc6[nH]c(Br)c(c56)C[C@H]4N(C)C3)(C(C)C)C(=O)N12 [Bromocriptine, Bromocriptine mesylate]", "Readout units": "Å", "Numeric value": 1.0}
{"Compound": "CC(C)CCC[C@@H](C)[C@H]1CC[C@H]2[C@@H]3CC=C4C[C@@H](O)CC[C@]4(C)[C@H]3CC[C@]12C", "Readout units": "Å", "Numeric value": 1.0}
{"Compound": "O=c1cc(-c2ccccc2)oc2c1ccc1ccccc12", "Readout units": "Å", "Numeric value": 1.1}
{"Compound": "OCCCCc1ccc2ccc3cccc4ccc1c2c34", "Readout units": "Å", "Numeric value": 0.8}

====

Some molecules, each annotated with its measured ΔR, lifetime measurements.
- Tested on: double-labeled CYP3A4 C377/C468-DY/ER (Homo sapiens, UniProt P08684, S18F, form not given)
- Sequence (P08684 13-503 S18F, form open): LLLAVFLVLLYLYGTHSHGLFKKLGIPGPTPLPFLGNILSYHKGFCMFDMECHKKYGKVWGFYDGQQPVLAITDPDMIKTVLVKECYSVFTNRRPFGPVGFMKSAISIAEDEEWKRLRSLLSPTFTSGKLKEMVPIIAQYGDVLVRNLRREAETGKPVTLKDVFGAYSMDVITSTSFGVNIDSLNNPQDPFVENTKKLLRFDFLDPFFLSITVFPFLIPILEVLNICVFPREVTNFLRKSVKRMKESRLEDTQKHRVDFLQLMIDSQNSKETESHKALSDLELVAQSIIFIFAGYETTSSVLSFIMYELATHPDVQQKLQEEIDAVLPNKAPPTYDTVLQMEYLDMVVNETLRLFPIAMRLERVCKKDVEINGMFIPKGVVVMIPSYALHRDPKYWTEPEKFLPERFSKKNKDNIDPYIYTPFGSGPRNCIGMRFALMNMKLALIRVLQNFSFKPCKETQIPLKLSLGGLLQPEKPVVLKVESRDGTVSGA
- Test description: Time-resolved LRET (phosphorescence lifetime measurements)
- Experimental setup: Table S2; protein C377/C468-ER/DY; same ligand concentrations
Structures can show the parent of a compound that is named as a salt.

{"Molecule": "O=c1cc(-c2ccccc2)oc2c1ccc1ccccc12", "ΔR, lifetime measurements": "7.1 ± 2.3 Å"}
{"Molecule": "C[C@]12CC[C@H]3[C@@H](CCC4=CC(=O)CC[C@@]43C)[C@@H]1CC[C@@H]2O", "ΔR, lifetime measurements": "8.5 ± 3.0 Å"}
{"Molecule": "CC(C)C[C@H]1C(=O)N2CCC[C@H]2[C@]2(O)O[C@](NC(=O)[C@@H]3C=C4c5cccc6[nH]c(Br)c(c56)C[C@H]4N(C)C3)(C(C)C)C(=O)N12 [Bromocriptine, Bromocriptine mesylate]", "ΔR, lifetime measurements": "0.0 ± 0.4 Å"}
{"Molecule": "OCCCCc1ccc2ccc3cccc4ccc1c2c34", "ΔR, lifetime measurements": "1.6 ± 0.3 Å"}
{"Molecule": "CC(C)CCC[C@@H](C)[C@H]1CC[C@H]2[C@@H]3CC=C4C[C@@H](O)CC[C@]4(C)[C@H]3CC[C@]12C", "ΔR, lifetime measurements": "4.2 ± 0.6 Å"}

====

Catalogue of compounds with associated Kd
- Tested on: CYP3A4 (double-labeled (C64/C468)-DY/ER) (Homo sapiens, UniProt P08684, form not given/S18F)
- Sequence (P08684 13-503 S18F, form open): as above
- Test description: Steady-state LRET titration (delayed emission)
- Type: binding
- Experimental setup: human, purified double-labeled CYP3A4 (C64/C468)-DY/ER protein, pH 7.4; (C64/C468)-DY/ER; LRET titration; read-out: K d, steady-state fluorescence
Counter-ions that a name gives are not always drawn.

{"Compound": "CC(C)C[C@H]1C(=O)N2CCC[C@H]2[C@]2(O)O[C@](NC(=O)[C@@H]3C=C4c5cccc6[nH]c(Br)c(c56)C[C@H]4N(C)C3)(C(C)C)C(=O)N12 [Bromocriptine, Bromocriptine mesylate]", "Kd": "0.7 µM"}
{"Compound": "CC(C)CCC[C@@H](C)[C@H]1CC[C@H]2[C@@H]3CC=C4C[C@@H](O)CC[C@]4(C)[C@H]3CC[C@]12C", "Kd": "6.5 µM"}
{"Compound": "O=c1cc(-c2ccccc2)oc2c1ccc1ccccc12", "Kd": "9.1 µM"}
{"Compound": "OCCCCc1ccc2ccc3cccc4ccc1c2c34", "Kd": "22.2 µM"}
